Origin of measurements: ChEMBL document CHEMBL1153877

Some molecules, each annotated with its measured Activity.
System: Salmonella typhimurium
Experiment: Induction of mutagenicity in Salmonella Typhimurium TA100 assessed as number of revertant per nmol after 48 hrs
Assay type: toxicity, organism-based
Conditions: salmonella enterica subsp. enterica serovar typhimurium
outcome measure: Activity

molecule: Cc1nc(CS(=O)(=O)c2ccc(Cl)cc2)c([N+](=O)[O-])n1CC(C)O (stereo not given)
data value: 0.81
//
molecule: Cc1ccc(S(=O)(=O)Cc2nc(C)n(C)c2[N+](=O)[O-])cc1
data value: 4.65
//
molecule: Cn1cnc(CS(=O)(=O)c2ccc(F)cc2)c1[N+](=O)[O-]
data value: 10.53
//
molecule: Cn1cnc(CS(=O)(=O)c2ccc(Cl)cc2)c1[N+](=O)[O-]
data value: 44.03
//
molecule: Cc1nc(CS(=O)(=O)c2ccc(F)cc2)c([N+](=O)[O-])n1CCO
data value: 0.66
